Target: HLA-DR0901 protein (Homo sapiens, UniProt P01903+P01911, A100R/A103E/D57H/D86V/F55Y/F60I/F76Y/I96F/K127E/L162R/M171V/P40D/Q125H/Q99R/R33Q/R42F/S133A/S66N/T210M/V115G/W38K/Y107V/Y59G/Y89S)
Test: Peptide binding competition assay, DR0901
Residues, ends and D or L forms follow the SMILES beside them.
measured-quantity: pKd
On this scale, pKd is minus log10 of a concentration expressed in M (mol/L).

Solved cases (2 shown):
CC[C@H](C)[C@H](NC(=O)[C@H](CCCCN)NC(=O)[C@H](CC(N)=O)NC(=O)[C@H](CC(C)C)NC(=O)[C@H](CO)NC(=O)[C@H](Cc1ccc(O)cc1)NC(=O)[C@H](CC(N)=O)NC(=O)[C@H](Cc1ccccc1)NC(=O)[C@H](CC(N)=O)NC(=O)[C@@H](N)CC(C)C)C(=O)N[C@H](C(=O)N[C@H](C(=O)N[C@@H](CC(=O)O)C(=O)O)C(C)C)[C@@H](C)CC [LNFNYSLNKIIVD] (H-LNFNYSLNKIIVD-OH) | 7.03
CC[C@H](C)[C@H](NC(=O)[C@H](Cc1ccc(O)cc1)NC(=O)[C@H](CC(=O)O)NC(=O)[C@H](CC(C)C)NC(=O)[C@H](CO)NC(=O)[C@H](Cc1ccc(O)cc1)NC(=O)[C@H](CC(N)=O)NC(=O)[C@H](Cc1ccccc1)NC(=O)[C@H](CC(N)=O)NC(=O)[C@@H](N)CC(C)C)C(=O)N[C@H](C(=O)N[C@H](C(=O)N[C@@H](CC(=O)O)C(=O)O)C(C)C)[C@@H](C)CC [LNFNYSLDYIIVD] (H-LNFNYSLDYIIVD-OH) | 7.39

Req: Could you share which pKd value was measured for CC[C@H](C)[C@H](NC(=O)[C@H](C)NC(=O)[C@H](CC(=O)O)NC(=O)[C@H](CC(C)C)NC(=O)[C@H](CO)NC(=O)[C@H](Cc1ccc(O)cc1)NC(=O)[C@H](CC(N)=O)NC(=O)[C@H](Cc1ccccc1)NC(=O)[C@H](CC(N)=O)NC(=O)[C@@H](N)CC(C)C)C(=O)N[C@H](C(=O)N[C@H](C(=O)N[C@@H](CC(=O)O)C(=O)O)C(C)C)[C@@H](C)CC [LNFNYSLDAIIVD] (H-LNFNYSLDAIIVD-OH) ?
Resp: 7.19

Req: Consider next the compound CC[C@H](C)[C@H](NC(=O)[C@H](CCCCN)NC(=O)[C@H](CC(=O)O)NC(=O)[C@H](CC(C)C)NC(=O)[C@H](CCCNC(=N)N)NC(=O)[C@H](Cc1ccc(O)cc1)NC(=O)[C@H](CC(N)=O)NC(=O)[C@H](Cc1ccccc1)NC(=O)[C@H](CC(N)=O)NC(=O)[C@@H](N)CC(C)C)C(=O)N[C@H](C(=O)N[C@H](C(=O)N[C@@H](CC(=O)O)C(=O)O)C(C)C)[C@@H](C)CC [LNFNYRLDKIIVD] (H-LNFNYRLDKIIVD-OH) in the same way.
Resp: 5.91

Req: Do the same for CC[C@H](C)[C@H](NC(=O)[C@H](CCCCN)NC(=O)[C@H](CC(=O)O)NC(=O)[C@H](CC(C)C)NC(=O)[C@H](CCC(N)=O)NC(=O)[C@H](Cc1ccc(O)cc1)NC(=O)[C@H](CC(N)=O)NC(=O)[C@H](Cc1ccccc1)NC(=O)[C@H](CC(N)=O)NC(=O)[C@@H](N)CC(C)C)C(=O)N[C@H](C(=O)N[C@H](C(=O)N[C@@H](CC(=O)O)C(=O)O)C(C)C)[C@@H](C)CC [LNFNYQLDKIIVD] (H-LNFNYQLDKIIVD-OH) please
Resp: 5.82

Origin of the recorded values: paper PMC4061985
